Target: p110β/p85α (Homo sapiens)
Sequence (P42338 whole entry): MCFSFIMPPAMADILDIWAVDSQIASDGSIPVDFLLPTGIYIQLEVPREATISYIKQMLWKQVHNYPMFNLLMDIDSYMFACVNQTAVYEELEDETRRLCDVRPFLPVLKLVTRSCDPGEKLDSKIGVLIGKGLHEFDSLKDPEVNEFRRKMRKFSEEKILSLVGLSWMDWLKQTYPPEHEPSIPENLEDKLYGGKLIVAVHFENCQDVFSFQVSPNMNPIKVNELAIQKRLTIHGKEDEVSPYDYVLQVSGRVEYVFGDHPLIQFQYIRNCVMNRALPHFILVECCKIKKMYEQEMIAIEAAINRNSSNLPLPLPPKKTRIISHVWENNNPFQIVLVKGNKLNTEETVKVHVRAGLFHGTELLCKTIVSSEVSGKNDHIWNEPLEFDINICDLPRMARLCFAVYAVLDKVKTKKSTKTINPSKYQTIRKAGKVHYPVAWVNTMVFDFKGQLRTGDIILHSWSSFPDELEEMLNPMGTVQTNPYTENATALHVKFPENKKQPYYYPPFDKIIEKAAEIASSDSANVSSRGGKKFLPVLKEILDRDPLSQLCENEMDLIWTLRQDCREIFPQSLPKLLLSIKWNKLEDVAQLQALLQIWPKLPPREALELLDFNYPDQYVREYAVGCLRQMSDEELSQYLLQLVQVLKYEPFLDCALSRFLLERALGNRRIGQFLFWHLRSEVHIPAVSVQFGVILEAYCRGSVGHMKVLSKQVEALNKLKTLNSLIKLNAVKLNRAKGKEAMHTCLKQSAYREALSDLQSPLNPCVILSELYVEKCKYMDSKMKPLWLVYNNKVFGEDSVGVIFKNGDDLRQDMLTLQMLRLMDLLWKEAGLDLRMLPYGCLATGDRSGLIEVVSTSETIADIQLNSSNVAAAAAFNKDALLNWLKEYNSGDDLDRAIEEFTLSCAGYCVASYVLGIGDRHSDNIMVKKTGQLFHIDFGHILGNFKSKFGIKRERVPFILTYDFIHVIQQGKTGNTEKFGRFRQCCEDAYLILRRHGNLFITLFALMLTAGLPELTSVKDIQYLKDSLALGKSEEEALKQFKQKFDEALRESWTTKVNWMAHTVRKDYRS
Sequence (P27986 2-724 partner): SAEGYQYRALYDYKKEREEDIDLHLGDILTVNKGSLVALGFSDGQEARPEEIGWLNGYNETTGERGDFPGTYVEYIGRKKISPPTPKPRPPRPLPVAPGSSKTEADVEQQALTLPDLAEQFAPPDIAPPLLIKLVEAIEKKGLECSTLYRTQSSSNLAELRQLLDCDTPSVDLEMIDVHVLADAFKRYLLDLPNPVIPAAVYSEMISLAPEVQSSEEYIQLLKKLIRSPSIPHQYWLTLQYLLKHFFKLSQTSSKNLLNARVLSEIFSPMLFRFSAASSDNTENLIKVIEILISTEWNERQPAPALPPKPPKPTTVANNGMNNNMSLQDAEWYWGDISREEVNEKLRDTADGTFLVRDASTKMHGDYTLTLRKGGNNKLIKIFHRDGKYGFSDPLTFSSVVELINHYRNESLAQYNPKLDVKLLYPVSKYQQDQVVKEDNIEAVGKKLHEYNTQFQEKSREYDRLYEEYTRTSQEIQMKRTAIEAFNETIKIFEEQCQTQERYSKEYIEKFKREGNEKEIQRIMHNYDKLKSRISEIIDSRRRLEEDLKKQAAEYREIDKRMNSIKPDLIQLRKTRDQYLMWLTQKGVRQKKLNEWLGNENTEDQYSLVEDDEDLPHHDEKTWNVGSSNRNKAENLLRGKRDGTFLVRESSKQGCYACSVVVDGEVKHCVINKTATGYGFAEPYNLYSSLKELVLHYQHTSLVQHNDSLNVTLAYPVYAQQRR
Test: Transcreener KINASE Assay, kinase inhibition of p110β/p85α
Type: biochemical
Conditions: 1 uM test compound
Response key: Met means PI3Kβ IH % @ 1 uM >= 30%; Not met means PI3Kβ IH % @ 1 uM < 30%.

Reference set, count: 5
>>> category("C[S+]([O-])c1c[nH]c2ncnc(N3CCC[C@H]3c3nn4ccc(Cl)c4c(=O)n3-c3ccccn3)c12 (single isomer, unassigned)")
"Met"
>>> category("Nc1nc(N2CC[C@H]2c2nn3ccc(Br)c3c(=O)n2-c2ccccc2)n2nccc2n1")
"Not met"
>>> category("Nc1nc(N2CCC[C@H]2c2nn3ccc(Cl)c3c(=O)n2-c2ccccc2)c2cccn2n1")
"Not met"
>>> category("N#Cc1c[nH]c2ncnc(N3C[C@@H](O)C[C@H]3c3nn4ccc(Cl)c4c(=O)n3-c3cccc(F)c3)c12")
"Met"
>>> category("N#Cc1c[nH]c2ncnc(N3C[C@@H](C#N)C[C@H]3c3nn4ccc(Cl)c4c(=O)n3-c3ccccc3)c12")
"Met"

Quick check, PI3Kβ IH % @ 1 uM >= 30%? `Nc1nc2c(c(N3CC[C@H]3c3nn4ccc(Cl)c4c(=O)n3-c3ccccc3)n1)CCC2`
Not met

Can you handle `Cc1ccn2nc([C@@H]3CCCN3c3ncnc4[nH]cc(C#N)c34)n(-c3ccccc3)c(=O)c12` next?
Met

Can you handle `Cc1nc(N)nc(N2C[C@H](C)[C@H]2c2nn3ccc(C#N)c3c(=O)n2-c2ccccc2)c1C#N` next?
Met

Can you handle `Nc1ncc(C(=O)C2CC2)c(N2CC[C@H]2c2nn3ccc(Cl)c3c(=O)n2-c2ccccc2)n1` next?
Not met

Can you handle `Nc1nc(N2CC[C@H]2c2nn3ccc(Cl)c3c(=O)n2-c2ccccc2)n2nccc2n1` next?
Met

Origin of measurements: patent US20150307520A1
